B1: Serine/threonine-protein kinase A-Raf, residues 21 to 89; numbered along this chain, P10398 (parent)
chain: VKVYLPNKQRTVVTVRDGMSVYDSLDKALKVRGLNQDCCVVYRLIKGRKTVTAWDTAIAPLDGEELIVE

# Variants of: B1
# PROCEDURE_SUMMARY: abundance fitness (aPCA) (normalised: wild type 0, dead -1); higher = more abundant; growth selection in yeast, the domain comes from the species named
# CONDITION_LABEL: Homo sapiens
Classes are defined on abundance fitness with ranges band 1 (below -0.5), band 2 (-0.5 to below -0.2), band 3 (-0.2 or more)

Query string: Would you mind sorting `V40F` into the appropriate category?
Result string: band 1

Query string: Would you mind sorting `S24V` into the appropriate category?
Result string: band 3

Query string: Would you mind sorting `R32I` into the appropriate category?
Result string: band 3

Query string: Would you mind sorting `Q36R` into the appropriate category?
Result string: band 3

Query string: Would you mind sorting `L61S` into the appropriate category?
Result string: band 3

Query string: Would you mind sorting `L44K` into the appropriate category?
Result string: band 3
